- tgt: T1, human PD-L1 (human, UniProt Q9NZQ7 19-290)
- T1 construct: also called huPD-L1; CD274
- assay_procedure: flow cytometry on CHO cells stably expressing PD-L1

- binder: "CD80 E35D/M47V/N48K/V68M/K89N IgV-Fc, GS(G4S)5 linker (Fc fusion, not shown: a dimerising Fc or GST) VIHVTKEVKEVATLSCGHNVSVEELAQTRIYWQKDKKMVLTMMSGDVKIWPEYKNRTIFDITNNLSIMILALRPSDEGTYECVVLKYENDAFKREHLAEVTLSVKADGSGGGGSGGGGSGGGGSGGGGSGGGGS"
  MFI at 33.3 nM: "22700 MFI"
- binder: "CD80 E35D/D46V/M47L/V68M/L85Q/E88D IgV-Fc, GS(G4S)5 linker (Fc fusion, not shown: a dimerising Fc or GST) VIHVTKEVKEVATLSCGHNVSVEELAQTRIYWQKDKKMVLTMMSGVLNIWPEYKNRTIFDITNNLSIMILALRPSDEGTYECVVQKYDKDAFKREHLAEVTLSVKADGSGGGGSGGGGSGGGGSGGGGSGGGGS"
  MFI at 33.3 nM: "22400 MFI"
- binder: "CD80 E35D/M47V/N48K/V68M/K89N IgV-Fc, (EAAAK)3 linker (Fc fusion, not shown: a dimerising Fc or GST) VIHVTKEVKEVATLSCGHNVSVEELAQTRIYWQKDKKMVLTMMSGDVKIWPEYKNRTIFDITNNLSIMILALRPSDEGTYECVVLKYENDAFKREHLAEVTLSVKADEAAAKEAAAKEAAAK"
  MFI at 33.3 nM: "24500 MFI"
- binder: "wild-type CD80 IgV-Fc (inert) with GSG4S linker, Example 16 (Fc fusion, also called CD80 WT IgV-Fc) VIHVTKEVKEVATLSCGHNVSVEELAQTRIYWQKEKKMVLTMMSGDMNIWPEYKNRTIFDITNNLSIVILALRPSDEGTYECVVLKYEKDAFKREHLAEVTLSVKADGSGGGGSEPKSSDKTHTCPPCPAPEAEGAPSVFLFPPKPKDTLMISRTPEVTCVVVDVSHEDPEVKFNWYVDGVEVHNAKTKPREEQYNSTYRVVSVLTVLHQDWLNGKEYKCKVSNKALPAPIEKTISKAKGQPREPQVYTLPPSREEMTKNQVSLTCLVKGFYPSDIAVEWESNGQPENNYKTTPPVLDSDGSFFLYSKLTVDKSRWQQGNVFSCSVMHEALHNHYTQKSLSLSPG"
  MFI at 33.3 nM: "47 MFI"
- binder: "CD80 E35D/D46V/M47L/V68M/L85Q/E88D IgV-Fc, delta linker (Fc fusion, Fused directly to the Fc with no additional linker; also called E35D/D46V/M47L/V68M/L85Q/E88D delta) VIHVTKEVKEVATLSCGHNVSVEELAQTRIYWQKDKKMVLTMMSGVLNIWPEYKNRTIFDITNNLSIMILALRPSDEGTYECVVQKYDKDAFKREHLAEVTLSVKTHTCPPCPAPEAEGAPSVFLFPPKPKDTLMISRTPEVTCVVVDVSHEDPEVKFNWYVDGVEVHNAKTKPREEQYNSTYRVVSVLTVLHQDWLNGKEYKCKVSNKALPAPIEKTISKAKGQPREPQVYTLPPSREEMTKNQVSLTCLVKGFYPSDIAVEWESNGQPENNYKTTPPVLDSDGSFFLYSKLTVDKSRWQQGNVFSCSVMHEALHNHYTQKSLSLSPG"
  MFI at 33.3 nM: "22500 MFI"
- binder: "CD80 E35D/M47V/N48K/V68M/K89N IgV-Fc, delta linker (Fc fusion, Fused directly to the Fc with no additional linker; also called E35D/M47V/N48K/V68M/K89N delta) VIHVTKEVKEVATLSCGHNVSVEELAQTRIYWQKDKKMVLTMMSGDVKIWPEYKNRTIFDITNNLSIMILALRPSDEGTYECVVLKYENDAFKREHLAEVTLSVKTHTCPPCPAPEAEGAPSVFLFPPKPKDTLMISRTPEVTCVVVDVSHEDPEVKFNWYVDGVEVHNAKTKPREEQYNSTYRVVSVLTVLHQDWLNGKEYKCKVSNKALPAPIEKTISKAKGQPREPQVYTLPPSREEMTKNQVSLTCLVKGFYPSDIAVEWESNGQPENNYKTTPPVLDSDGSFFLYSKLTVDKSRWQQGNVFSCSVMHEALHNHYTQKSLSLSPG"
  MFI at 33.3 nM: "20400 MFI"
